Catalogue of log10 IC50 values
Biological target: PI3Kα (Homo sapiens, UniProt P42336)
Sequence (P42336 whole entry): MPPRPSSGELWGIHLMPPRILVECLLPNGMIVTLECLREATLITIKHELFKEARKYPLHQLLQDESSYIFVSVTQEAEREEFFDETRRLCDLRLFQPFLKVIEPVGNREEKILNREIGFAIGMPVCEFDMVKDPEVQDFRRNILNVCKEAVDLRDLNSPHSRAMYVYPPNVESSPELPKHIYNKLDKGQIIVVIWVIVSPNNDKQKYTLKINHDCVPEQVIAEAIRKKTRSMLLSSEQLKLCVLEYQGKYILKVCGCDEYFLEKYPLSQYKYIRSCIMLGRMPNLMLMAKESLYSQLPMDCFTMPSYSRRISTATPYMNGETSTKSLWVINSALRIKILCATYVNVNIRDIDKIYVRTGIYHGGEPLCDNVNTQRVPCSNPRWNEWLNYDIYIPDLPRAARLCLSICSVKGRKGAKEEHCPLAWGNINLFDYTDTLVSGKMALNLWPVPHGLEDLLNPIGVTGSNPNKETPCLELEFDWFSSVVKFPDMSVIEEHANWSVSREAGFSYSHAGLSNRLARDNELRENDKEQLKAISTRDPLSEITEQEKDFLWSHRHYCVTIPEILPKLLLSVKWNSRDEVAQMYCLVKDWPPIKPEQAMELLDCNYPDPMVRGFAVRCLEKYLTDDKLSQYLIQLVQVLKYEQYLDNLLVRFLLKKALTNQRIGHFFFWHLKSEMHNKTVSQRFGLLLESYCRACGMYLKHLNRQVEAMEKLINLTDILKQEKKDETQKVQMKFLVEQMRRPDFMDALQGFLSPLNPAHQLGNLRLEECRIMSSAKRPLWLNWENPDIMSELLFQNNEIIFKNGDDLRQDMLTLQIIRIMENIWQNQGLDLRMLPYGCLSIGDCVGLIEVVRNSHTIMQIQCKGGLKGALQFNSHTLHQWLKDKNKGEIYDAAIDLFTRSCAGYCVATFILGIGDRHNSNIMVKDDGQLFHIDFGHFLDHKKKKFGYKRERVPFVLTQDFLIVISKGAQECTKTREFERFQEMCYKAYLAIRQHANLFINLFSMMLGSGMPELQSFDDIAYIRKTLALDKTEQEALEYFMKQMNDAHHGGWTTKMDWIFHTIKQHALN
Sequence (P27986 whole entry partner): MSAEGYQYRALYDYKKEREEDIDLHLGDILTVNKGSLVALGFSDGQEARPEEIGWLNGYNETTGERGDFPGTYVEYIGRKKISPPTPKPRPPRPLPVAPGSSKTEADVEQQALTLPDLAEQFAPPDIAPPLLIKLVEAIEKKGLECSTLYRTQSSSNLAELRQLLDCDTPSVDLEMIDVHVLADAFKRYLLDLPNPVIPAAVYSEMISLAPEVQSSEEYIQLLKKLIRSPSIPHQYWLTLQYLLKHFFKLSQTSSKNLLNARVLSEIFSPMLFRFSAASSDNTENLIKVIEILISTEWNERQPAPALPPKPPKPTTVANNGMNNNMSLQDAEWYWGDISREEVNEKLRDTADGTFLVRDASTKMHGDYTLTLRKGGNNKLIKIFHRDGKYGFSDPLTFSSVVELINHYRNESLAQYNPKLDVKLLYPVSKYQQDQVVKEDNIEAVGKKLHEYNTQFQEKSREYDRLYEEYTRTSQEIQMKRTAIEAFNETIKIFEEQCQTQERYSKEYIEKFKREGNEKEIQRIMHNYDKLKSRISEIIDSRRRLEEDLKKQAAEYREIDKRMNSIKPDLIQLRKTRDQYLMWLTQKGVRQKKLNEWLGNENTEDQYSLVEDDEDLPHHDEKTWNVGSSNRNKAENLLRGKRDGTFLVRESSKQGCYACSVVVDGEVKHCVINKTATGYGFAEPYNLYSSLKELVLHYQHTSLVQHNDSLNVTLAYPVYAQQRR
Test: PI3Kα kinase activity, Adapta TR-FRET ADP detection
Details: purified p110α/p85α heterodimer, triplicate; read-out: Kinases IC50 PI3Kα
Where a name gives a salt, the structure may show the parent alone.
# values: log10(IC50), units nM

Input: Kindly state the measured log10 IC50 obtained for Oc1cccc(-c2nc(N3CCOCC3)c3ncc(Cn4cc(CF)nn4)cc3n2)c1 with PI3Kα (Homo sapiens, UniProt P42336).
Output: 2.59

Input: Give recorded log10 IC50 with PI3Kα (Homo sapiens, UniProt P42336) for the following compound: OCc1cccc(-c2nc(N3CCOCC3)c3ncc(Cl)cc3n2)c1
Output: 1.51

Input: Form field - read-out: log10 IC50; system: PI3Kα (Homo sapiens, UniProt P42336); submitted item: CS(=O)(=O)N1CCN(Cc2cnc3c(N4CCOCC4)nc(-c4cccc(O)c4)nc3c2)CC1
Output: 1.75

Input: Missing value: log10 IC50, PI3Kα (Homo sapiens, UniProt P42336), entry CN1CCN(Cc2cnc3c(N4CCOCC4)nc(-c4cccc(O)c4)nc3c2)CC1 [Compound 30, hydrochloride] . Fill in?
Output: 2.59

Input: Given the entry O=C(O)c1cnc2c(N3CCOCC3)nc(-c3cccc(O)c3)nc2c1 , what log10 IC50 was observed with PI3Kα (Homo sapiens, UniProt P42336)?
Output: 1.00

Input: Record C=Cc1cnc2c(N3CCOCC3)nc(-c3ccc(O)cc3)nc2c1 : what is its log10 IC50 with PI3Kα (Homo sapiens, UniProt P42336)?
Output: 3.20

Input: Lab note: need log10 IC50 with PI3Kα (Homo sapiens, UniProt P42336) for entry Oc1cccc(-c2nc(N3CCOCC3)nc3cc(Cl)cnc23)c1 , please look it up.
Output: 2.74

Input: Recorded log10 IC50 for COCOCc1cn(Cc2cnc3c(N4CCOCC4)nc(-c4cccc(O)c4)nc3c2)nn1 with PI3Kα (Homo sapiens, UniProt P42336), please?
Output: 2.06
